# Tested on: human non-small-cell lung carcinoma (NCI-H1650) cell line
# testMethodNotes: Cytotoxicity assay (MTT), NCI-H1650
# Assay type: cell-based
# conditionInfo: Homo sapiens, NCI-H1650; MTT, 24 h treatment
experimentalEndpoint: IC50 (µM)
Lab book: enter the figure in µM, no units written.

Recorded IC50, per entry:
## Input Reported IC50, compound COc1cc(C=CC(=O)OCC2C(c3cc(OC)c(O)c(OC)c3)OCC2C(OC)c2cc(OC)c(O)c(OC)c2)ccc1O (stereo not shown) : ____
## Output 13.2

## Input Continue with COc1cc(C=CC(=O)OCC2C(Cc3cc(OC)c(O)c(OC)c3)COC2c2cc(OC)c(O)c(OC)c2)cc(OC)c1O (single isomer, unassigned; (+))
## Output 11.2

## Input Continue with COc1cc(C=CC(=O)OCC2C(Cc3cc(OC)c(O)c(OC)c3)COC2c2cc(OC)c(O)c(OC)c2)ccc1O (single isomer, unassigned; (+))
## Output 9.68

Could you now consider this next compound?
## Input Reported IC50, compound CC(=O)O[C@H]1C(=O)[C@@]2(C)[C@H]([C@H](OC(=O)c3ccccc3)[C@]3(O)C[C@H](OC(=O)[C@H](O)[C@@H](NC(=O)c4ccccc4)c4ccccc4)C(C)=C1C3(C)C)[C@]1(OC(C)=O)CO[C@@H]1C[C@@H]2O [Taxol, reference compound] : ____
## Output 1.28

Data credit: paper PMC6359749
